Where do these numbers come from? They come from patent US20140302063A1.

# tgt: A/Brisbane/59/2007 (H1N1-like) inactivated viral preparation (Influenza A virus A/Brisbane/59/2007 (H1N1-like))
# method: ELISA, inactivated virus
metric: EC50

1) R2a-B9 (VHH) VHH: QVQLVESGGGLVQPGGSLRLSCAASGSAFSINAMGWYRQAPGEEREFVAAITAGGNTYYADSAKARFTISRDNAKNMLYLQMNSLKPEDTAMYYCAATKAFGIATITADYELWGQGTQVTVSS; 9.84 mg/L

Task item: Fill in: EC50 of R1a-G5 (VHH) VHH: QLQLVESGGGLVQPGGSLRLSCAASGSISRIVTMGWYRQASGKERELVAVIGNYGNTNYADSVKGRFTVSRDNAKDTAYLQMNGLNVEDTAIYYCKTSTTTPPYEYWGQGTQVTVSS is ___
Reply: 0.29 mg/L

Task item: Now consider R1a-F5 (VHH) VHH: QLQLVESGGGLVQVGGSLRLSCAASGFPFDGYAIAWFRQAPGKEREGVSCRASDGNTYYAESLKGRLTMSTDNAKNTVYLQMNSLKPEDTAVYYCAAASWVASLWSPSEYDYWGQGTQVTVSS and answer again.
Reply: 0.7 mg/L

Task item: Now consider R2a-G8 (VHH) VHH: QLQLAESGGGLVQAGGSLRLSCAASGSTLNNNAIGWFRQAPGKEREGVSCMNSRDGTTNYADSVKGRFTISRDVAKNTVYLQMNSLKPEDTAVYFCAVKGFAPFLIGCPWGKAEYDYWGQGTQVTVSS and answer again.
Reply: 1.86 mg/L

Task item: Now consider R2b-D9 (VHH) VHH: QVQLVESGGGLVQPGGSLRLSCLASGSAFSLYTMGWYRQAPGNQRELVAAITSGESTNYADSVKGRFTISRDNAKNTVYLQMNSLKPEDTAVYYCNADPLSTGWGQYSYWGQGTQVTVSS and answer again.
Reply: 0.8 mg/L
